Just for reference, patent US20260116991A1 is where these values come from.

Listing of recorded OD450 nm by entry.
biological target: T1, monkey GPC3-His protein (monkey); assay: ELISA, monkey GPC3-His coated; antibody 6.94 nM
T1 construct: Bought protein; also called monkey GPC3 protein
Output spec: single numeric token, no unit.

In: Field request: OD450 nm | item: hAb007LH1L1e (antibody, human IgG1, V domains shown, Humanized F3.81.19, H1+L1e) VH: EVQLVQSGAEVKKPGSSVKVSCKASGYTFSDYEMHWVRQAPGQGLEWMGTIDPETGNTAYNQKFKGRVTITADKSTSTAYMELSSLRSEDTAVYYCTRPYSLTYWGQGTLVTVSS VL: DIVMTQTPLSLPVTPGEPASISCRSSQSFVHSNVDTYLQWYLQKPGQSPQLLIYKVSNRFSGVPDRFSGSGSGTDFTLKISRVEAEDVGVYYCFQGSHVPYTFGQGTKLEIK
Out: 1.17

In: Also, hAb007LH1L1d (antibody, human IgG1, V domains shown, Humanized F3.81.19, H1+L1d) VH: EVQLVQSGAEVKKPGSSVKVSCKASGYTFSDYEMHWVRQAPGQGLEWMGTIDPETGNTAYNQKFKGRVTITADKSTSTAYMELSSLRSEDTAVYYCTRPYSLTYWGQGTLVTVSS VL: DIVMTQTPLSLPVTPGEPASISCRSSQSFVHSNSDTYLQWYLQKPGQSPQLLIYKVSNRFSGVPDRFSGSGSGTDFTLKISRVEAEDVGVYYCFQGSHVPYTFGQGTKLEIK please.
Out: 1.3

In: Follow-up entry: hAb006LH3L1d (antibody, human IgG1, V domains shown, Humanized F3.38.7, H3+L1d) VH: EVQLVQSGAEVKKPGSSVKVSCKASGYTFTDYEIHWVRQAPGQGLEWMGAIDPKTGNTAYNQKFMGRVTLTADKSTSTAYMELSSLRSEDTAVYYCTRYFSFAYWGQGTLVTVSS VL: DIVMTQTPLSLPVTPGEPASISCRSSQTFVHSNSNTYLQWYLQKPGQSPQLLIYKVSNRFSGVPDRFSGSGSGTDFTLKISRVEAEDVGVYYCFQGSHVPYTFGQGTKLEIK
Out: 1.29
